Form field: WT KD/Mutant KD (one value per entry).
# assayed target: T1, c-Met (NP_000236) (human, UniProt P08581 25-932, limits assumed)
# T1 construct: also called antigen
# T1 sequence (P08581 25-932 limits assumed): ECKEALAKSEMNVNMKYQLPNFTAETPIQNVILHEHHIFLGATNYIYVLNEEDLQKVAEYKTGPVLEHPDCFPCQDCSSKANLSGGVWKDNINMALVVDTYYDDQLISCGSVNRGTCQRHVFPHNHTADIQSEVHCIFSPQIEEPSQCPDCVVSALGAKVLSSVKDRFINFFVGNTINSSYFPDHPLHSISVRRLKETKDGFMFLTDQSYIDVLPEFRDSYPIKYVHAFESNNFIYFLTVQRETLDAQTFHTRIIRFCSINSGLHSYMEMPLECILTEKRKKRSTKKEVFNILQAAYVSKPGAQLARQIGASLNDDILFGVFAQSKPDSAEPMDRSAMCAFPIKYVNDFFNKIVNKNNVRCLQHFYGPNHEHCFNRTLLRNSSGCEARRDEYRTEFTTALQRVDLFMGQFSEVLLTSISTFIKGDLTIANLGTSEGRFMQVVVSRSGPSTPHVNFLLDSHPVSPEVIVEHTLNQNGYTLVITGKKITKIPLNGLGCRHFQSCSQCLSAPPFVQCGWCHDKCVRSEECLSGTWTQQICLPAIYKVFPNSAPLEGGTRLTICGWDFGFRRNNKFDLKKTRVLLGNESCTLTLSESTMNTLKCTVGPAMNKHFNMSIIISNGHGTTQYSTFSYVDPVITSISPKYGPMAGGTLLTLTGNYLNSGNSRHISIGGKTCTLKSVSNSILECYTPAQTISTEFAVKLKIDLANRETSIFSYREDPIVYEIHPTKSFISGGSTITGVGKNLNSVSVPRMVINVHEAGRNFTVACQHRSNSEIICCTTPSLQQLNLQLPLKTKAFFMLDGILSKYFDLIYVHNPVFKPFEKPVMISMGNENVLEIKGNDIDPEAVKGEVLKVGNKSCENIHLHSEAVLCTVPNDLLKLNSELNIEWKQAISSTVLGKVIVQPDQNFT
# test name: ratio of the KD of chAbF46 to the KD of the clone
readout name: WT KD/Mutant KD (ratio)

>>> assay_value("clone 1-F3 (Fab) (Fab, V domains shown, Clone from the combinatorial library; Fab with human kappa constant region and CH1 of human IgG1) VH: EVQLVESGGGLVQPGGSLRLSCAASGFTFTDYYISWVRQAPGKGLEWVGFIRNKANGYTTEYSASVKGRFTISRDDSKNSLYLQMNSLKTEDTAVYYCARDNWFAYWGQGTLVTVSS VL: DIVMTQSPLSLPVTPGEPASISCKSSQSLLAWGNQNNYAAWYLQKPGQSPQLLIYWASTRVSGVPDRFSGSGSGTDFTLKISRVEAEDVGVYYCQQSYSRPLTFGQGTKLEIKR")
8.8
>>> assay_value("clone C30 (Fab) (Fab, V domains shown, Clone from the combinatorial library; Fab with human kappa constant region and CH1 of human IgG1) VH: EVQLVESGGGLVQPGGSLRLSCAASGFTFTDYYISWVRQAPGKGLEWVGFIRNKANGYTTEYSASVKGRFTISRDDSKNSLYLQMNSLKTEDTAVYYCARDNWFAYWGQGTLVTVSS VL: DIVMTQSPLSLPVTPGEPASISCKSSQSLLAWGFQNNYLAWYLQKPGQSPQLLIYWASTRVGGVPDRFSGSGSGTDFTLKISRVEAEDVGVYYCQQSYSRPLTFGQGTKLEIKR")
13.7
>>> assay_value("clone L1bA (Fab) (Fab, V domains shown, L3E with S27->W (S27E->W) in CDR-L1; Fab with human kappa constant region and CH1 of human IgG1; also called LlbA) VH: EVQLVESGGGLVQPGGSLRLSCAASGFTFTDYYISWVRQAPGKGLEWVGFIRNKANGYTTEYSASVKGRFTISRDDSKNSLYLQMNSLKTEDTAVYYCARDNWFAYWGQGTLVTVSS VL: DIVMTQSPLSLPVTPGEPASISCKSSQSLLAWGNQNNYLAWYLQKPGQSPQLLIYWASTRVSGVPDRFSGSGSGTDFTLKISRVEAEDVGVYYCQQSYSRPLTFGQGTKLEIKR")
12.8
>>> assay_value("clone C28 (Fab) (Fab, V domains shown, Clone from the combinatorial library; Fab with human kappa constant region and CH1 of human IgG1) VH: EVQLVESGGGLVQPGGSLRLSCAASGFTFTDYYISWVRQAPGKGLEWVGFIRNKANGYTTEYSASVKGRFTISRDDSKNSLYLQMNSLKTEDTAVYYCARDNWFAYWGQGTLVTVSS VL: DIVMTQSPLSLPVTPGEPASISCKSSQSLLAWSNQNNYLAWYLQKPGQSPQLLIYWAITRVGGVPDRFSGSGSGTDFTLKISRVEAEDVGVYYCQQSYSRPLTFGQGTKLEIKR")
19.9
